# Assayed Target: recombinant PIM-1 (Homo sapiens)
# Sequence (P11309 whole entry): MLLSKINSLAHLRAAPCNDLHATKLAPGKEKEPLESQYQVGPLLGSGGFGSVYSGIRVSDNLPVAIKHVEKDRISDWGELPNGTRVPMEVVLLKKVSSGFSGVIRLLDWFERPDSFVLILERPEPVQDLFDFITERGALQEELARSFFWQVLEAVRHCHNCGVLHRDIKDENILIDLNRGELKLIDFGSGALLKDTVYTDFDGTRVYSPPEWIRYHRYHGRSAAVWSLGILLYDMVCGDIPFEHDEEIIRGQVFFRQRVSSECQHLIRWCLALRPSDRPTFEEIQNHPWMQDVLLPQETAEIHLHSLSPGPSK
# Experimental Details: PIM-1 kinase assay (radiometric, 15 uM ATP, DMSO 4%)
# Assay type: biochemical
# Condition: Table 1; given for compounds with IC50 at or below 2 micromolar; 15 uM ATP; read-out: PIM-1 IC50
pIC50: −log10 of the molar value.
Value Kind: pIC50

Notebook: pull reported pIC50 for recombinant PIM-1 (Homo sapiens), entry O=C1Nc2ccccc2/C1=C\c1ccc(-c2cc(C(=O)NCCN3CCCC3)ccc2F)o1 [Compound 78] > 6.00

Notebook: pull reported pIC50 for recombinant PIM-1 (Homo sapiens), entry O=C1Nc2ccc(Cl)cc2/C1=C\c1ccc(-c2cccc(C(=O)NCC(O)c3ccccc3)c2)o1 (centres unmarked) [Compound 180] > 6.00

Notebook: pull reported pIC50 for recombinant PIM-1 (Homo sapiens), entry CCN(CC)CCNC(=O)c1ccc(-c2ccc(/C=C3/C(=O)Nc4ccc(F)cc43)o2)cc1 [Compound 80] > 6.00

Notebook: pull reported pIC50 for recombinant PIM-1 (Homo sapiens), entry O=C1Nc2ccccc2/C1=C\c1ccc(-c2ccc(C(=O)NCCN3CCCC3)c(O)c2)o1 [Compound 182] > 5.70

Notebook: pull reported pIC50 for recombinant PIM-1 (Homo sapiens), entry Cn1cncc1CNC(=O)c1ccc(-c2ccc(/C=C3/C(=O)Nc4ccccc43)o2)cn1 [Compound 132] > 6.00

Notebook: pull reported pIC50 for recombinant PIM-1 (Homo sapiens), entry O=C1Nc2ccc(F)cc2/C1=C\c1ccc(-c2cc(C(=O)NCCN3CCCC3)ccc2Cl)o1 [Compound 13] > 5.70

Notebook: pull reported pIC50 for recombinant PIM-1 (Homo sapiens), entry CN1CCCN(C(=O)c2cncc(-c3ccc(/C=C4/C(=O)Nc5ccc(Cl)cc54)o3)c2)CC1 [Compound 154] > 6.00

Notebook: pull reported pIC50 for recombinant PIM-1 (Homo sapiens), entry O=C1Nc2ccccc2/C1=C\c1ccc(-c2ccc3ccc(NCCN4CCCC4)nc3c2)o1 [Compound 155] > 6.00
